# Tested on: HL-60(TB) leukemia
# assayName: NCI tumour cell line growth inhibition, 48 h; in the data active = GI50 below about 0.43 µM; inactive = the rest
Labels: YES for active, NO for inactive

{"compound": "O=C1c2cccnc2C(=O)c2c1c(C(=O)OCCCN1CCCCC1)c1ccccn21", "classification": "YES"}
{"compound": "Cc1ccc(-n2nnnc2-c2cnc(N3CCOCC3)nc2-c2cccc(C(F)(F)F)c2)cc1", "classification": "NO"}
{"compound": "CCCCCCNCc1cc(C(C)(C)C)cc(CNCCCCCC)c1O", "classification": "NO"}
{"compound": "COC(=O)C(C(=O)OC)C(Br)C(Br)C(Br)c1ccccc1 (stereo not given)", "classification": "NO"}
{"compound": "O=C1/C(=C/c2ccc(O)cc2)COc2ccc(O)c(O)c21", "classification": "NO"}
{"compound": "Cn1cc(C2=C(Nc3ccccc3)C(=O)NC2=O)c2ccccc21", "classification": "NO"}
{"compound": "CC1(C)Cc2c(Br)c(Br)c(Br)c(OCC(O)CN3CCN(c4ccccn4)CC3)c2O1 (stereo not given)", "classification": "NO"}
{"compound": "CN(CCC(=O)/C(=C\\c1ccccc1)c1ccc(Cl)cc1)Cc1ccccc1", "classification": "NO"}
{"compound": "COc1c(N2CCN(CN3C(=O)C(=O)c4cc(Cl)ccc43)C(C)C2)c(F)cc2c(=O)c(C(=O)O)cn(C3CC3)c12 (stereo not given)", "classification": "NO"}
{"compound": "Cl.Fc1c[c-]c(-c2ccccn2)c(F)c1.[Pt].c1ccc([PH+](C[PH+](c2ccccc2)c2ccccc2)c2ccccc2)cc1", "classification": "YES"}

* * *

# Test system: MOLT-4 leukemia
# assayName: NCI tumour cell line growth inhibition, 48 h
Parameter: TGI. Scope: all listed entries.

{"molecule": "O=C1CSC(c2ccc(Cl)cc2Cl)N1c1ccc(Oc2ccc(Cl)cc2)c(Cl)c1 (stereo unspecified)", "measurementTarget": "MOLT-4 leukemia", "TGI": "81.5 µM"}
{"molecule": "NC(=O)c1sc(-n2cnc3cc(C(F)(F)F)ccc32)cc1OCc1ccccc1Br", "measurementTarget": "MOLT-4 leukemia", "TGI": "> 25 µM"}
{"molecule": "CC(C)(C)N/N=C(\\C(=O)NC1=C(Cl)C(=O)c2ccccc2C1=O)C1C=CCS1(=O)=O (stereo unspecified)", "measurementTarget": "MOLT-4 leukemia", "TGI": "> 100 µM"}
{"molecule": "C=Cn1c([N+](=O)[O-])cnc1/C=C/c1ccc(C(=O)OCCN2CCOCC2)cc1", "measurementTarget": "MOLT-4 leukemia", "TGI": "> 100 µM"}
{"molecule": "O=C(NO)NCCCl", "measurementTarget": "MOLT-4 leukemia", "TGI": "> 100 µM"}
{"molecule": "O=C(/C(=C\\I)c1ccccc1)c1ccccc1", "measurementTarget": "MOLT-4 leukemia", "TGI": "86.5 µM"}
{"molecule": "CC(=O)NC1=NC(=O)/C(=C/c2ccc(/C=C3/C(=O)N=C(NC(C)=O)N3C)cc2)N1C", "measurementTarget": "MOLT-4 leukemia", "TGI": "> 100 µM"}
{"molecule": "CC(Oc1ccccc1)C(=O)NNC(=O)OC(C)(C)C (stereo unspecified)", "measurementTarget": "MOLT-4 leukemia", "TGI": "> 100 µM"}
{"molecule": "CC(=O)c1ccc(NC(=O)C(=O)C(C#N)CC(C)(C)C=O)cc1 (stereo unspecified)", "measurementTarget": "MOLT-4 leukemia", "TGI": "> 100 µM"}
{"molecule": "CC1(C)Cc2c(Br)c(Br)c(Br)c(OCC(O)CN3CCN(c4ccccn4)CC3)c2O1 (stereo unspecified)", "measurementTarget": "MOLT-4 leukemia", "TGI": "19 µM"}
{"molecule": "COc1cc(C(C)O)c[n+](CCC2CNc3ccccc32)c1 (stereo unspecified)", "measurementTarget": "MOLT-4 leukemia", "TGI": "> 100 µM"}
{"molecule": "O=C1CC/C(=C/COc2cc(=O)oc3ccccc23)O1", "measurementTarget": "MOLT-4 leukemia", "TGI": "> 100 µM"}
{"molecule": "O=Cc1ccc(-c2ccc(-c3nc4ccccc4s3)cc2)s1", "measurementTarget": "MOLT-4 leukemia", "TGI": "> 100 µM"}
{"molecule": "COc1cc2ccnc3c(=C(SC)SC)c(=O)c(c1OC)c23", "measurementTarget": "MOLT-4 leukemia", "TGI": "23.8 µM"}
{"molecule": "O=C(O)/C=C/c1c[nH]c(=O)[nH]c1=O", "measurementTarget": "MOLT-4 leukemia", "TGI": "> 281 µM"}
{"molecule": "CCC(C)C1=C(O)[N+]2([O-])Oc3ccc(-c4c(O)c(O)c(-c5ccc(OC(C)=O)cc5)c(OC(C)=O)c4OC(C)=O)cc3OC2(C(C)CC)C(=O)N1O (stereo unspecified)", "measurementTarget": "MOLT-4 leukemia", "TGI": "> 50 µM"}

* * *

# System: HCT-116 colon
# assayName: NCI tumour cell line growth inhibition, 48 h
Parameter: log10 TGI. Scope: all listed entries.
measureName: log10 TGI (log10 of the value in µM)

{"compound": "C/C(=N\\Nc1nc2ccccc2s1)c1cc2ccccc2cn1", "resultNumber": 1.03}
{"compound": "CC1OC(OC2C(O[C@H]3CC[C@@]4(C)C(=CC[C@H]5[C@@H]6C[C@@H]7O[C@]8(CC[C@@H](C)CO8)[C@@H](C)[C@@H]7[C@@]6(C)CC[C@@H]54)C3)OC(CO)C(O)C2O)C(O)C(O)C1O (stereo partly drawn)", "resultNumber": 0.60}
{"compound": "O=C(/C(=C\\I)c1ccccc1)c1ccccc1", "resultNumber": 1.42}
{"compound": "CC1OC(CC(=O)O)CC2=C1C(=O)c1c(O)cccc1C2=O (stereo not drawn)", "resultNumber": -0.61}
{"compound": "CC1=CP(=O)(c2c(C(C)C)cc(C(C)C)cc2C(C)C)CCC1Cl (stereo not drawn)", "resultNumber": 1.58}
{"compound": "CC1(C)COC2=C(C1)C(=O)c1ccccc1C2=O", "resultNumber": 0.23}
{"compound": "C(=Nc1ccc(-c2nc3ccccc3s2)cc1)c1ccc[nH]1", "resultNumber": 1.48}
{"compound": "CCSC[C@@H]1C[C@](O)(c2ccc(F)cc2)[C@@H](c2ccc(F)cc2)O1", "resultNumber": 1.47}

* * *

# Test system: RPMI-8226 leukemia
# assayName: NCI tumour cell line growth inhibition, 48 h
Parameter: TGI. Scope: all listed entries.
measureName: TGI

{"compound": "O=C(NCCCl)SCCO", "measurementTarget": "RPMI-8226 leukemia", "result": "> 100 µM"}
{"compound": "O=C(NO)NCCCl", "measurementTarget": "RPMI-8226 leukemia", "result": "> 100 µM"}
{"compound": "Cc1c2c(n(CC(c3ccccc3)c3ccccc3)c1C)NN=C(C#N)S2(=O)=O", "measurementTarget": "RPMI-8226 leukemia", "result": "> 100 µM"}
{"compound": "Cc1ccc2c(c1)nc1n2C(N)=Nc2ccccc2S1", "measurementTarget": "RPMI-8226 leukemia", "result": "> 100 µM"}
{"compound": "Nc1nc(Cl)c(Cl)c(NCC2(O)CCC2)n1", "measurementTarget": "RPMI-8226 leukemia", "result": "> 100 µM"}
{"compound": "COc1cc2c(/C=C3/C(=O)Nc4ccc(Cl)cc43)c(Cl)[nH]c2cc1C", "measurementTarget": "RPMI-8226 leukemia", "result": "5.13 µM"}
{"compound": "N#Cc1cccc(C=NC23CC4CC(CC(C4)C2)C3)c1", "measurementTarget": "RPMI-8226 leukemia", "result": "> 100 µM"}
{"compound": "OC1(c2ccc(Cl)cc2)c2ccccc2-c2nc3ccccc3n21 (stereo not given)", "measurementTarget": "RPMI-8226 leukemia", "result": "> 100 µM"}
{"compound": "OC1COC2CC(Nc3ccccn3)OC12 (stereo not given)", "measurementTarget": "RPMI-8226 leukemia", "result": "> 100 µM"}
{"compound": "O=[N+]([O-])c1cc2no[n+]([O-])c2cc1N1CCCCC1", "measurementTarget": "RPMI-8226 leukemia", "result": "6.64 µM"}

* * *

Parameter: TGI. Scope: all listed entries.
# Test system: OVCAR-4 ovarian
# assayName: NCI tumour cell line growth inhibition, 48 h
measureName: TGI

{"compound": "C=C(Cl)C(Cl)(CCl)CCC(Br)C(C)(C)Br (centres undefined)", "measureName": "TGI", "result": "> 10 µM"}
{"compound": "CC(=O)c1ccc(NC(=O)C(=O)C(C#N)CC(C)(C)C=O)cc1 (centres undefined)", "measureName": "TGI", "result": "> 100 µM"}
{"compound": "COc1nc2ccc(COc3ccc(C(=O)O)cc3)cc2nc1OC", "measureName": "TGI", "result": "> 100 µM"}
{"compound": "[N-]=[N+]=CC(=O)OCCCCl", "measureName": "TGI", "result": "> 100 µM"}
{"compound": "COc1cc2c(c(OC)c1OC)-c1ccc(N=NC(N)=S)c(=O)cc1[C@@H](NC(C)=O)CC2", "measureName": "TGI", "result": "> 100 µM"}
{"compound": "N#CC1=C(O)NC(O)=C(C#N)C1c1ccc(C2C(C#N)=C(O)NC(O)=C2C#N)cc1", "measureName": "TGI", "result": "> 100 µM"}
{"compound": "O=C(O)c1c(Br)c(Br)c(Br)c(Br)c1C1c2ccc(O)cc2Oc2cc(O)ccc21", "measureName": "TGI", "result": "> 100 µM"}
{"compound": "C[C@]12CC(c3ccccc3O1)C(C(=O)Nc1nc(C34CC5CC(CC(C5)C3)C4)cs1)C(=O)N2 (some centres undefined)", "measureName": "TGI", "result": "> 100 µM"}
{"compound": "CC(Oc1ccccc1)C(=O)NNC(=O)OC(C)(C)C (centres undefined)", "measureName": "TGI", "result": "> 100 µM"}
{"compound": "CC(C)=CC[C@]12CCN(C)[C@H]1N(S(=O)(=O)c1ccccc1)c1ccccc12", "measureName": "TGI", "result": "> 100 µM"}
{"compound": "CC12CCC(CC1)C(C)(C)O2", "measureName": "TGI", "result": "129 µM"}
{"compound": "O=C1OC(=O)C2C3C=CC(C12)C1C2C=CC2C31 (centres undefined)", "measureName": "TGI", "result": "> 100 µM"}
{"compound": "O=C(O)c1nc2ccc(C(F)(F)F)cc2nc1Nc1ccc(F)cc1", "measureName": "TGI", "result": "> 100 µM"}
{"compound": "CC(=O)Nc1n[n+]([O-])c2cc(C)ccc2[n+]1[O-]", "measureName": "TGI", "result": "18 µM"}
{"compound": "COc1ccc(C(=O)c2sc3nc(-c4cccs4)ccc3c2N)cc1OC", "measureName": "TGI", "result": "> 100 µM"}
{"compound": "COc1cc2c(cc1OC)C(=O)/C(=C/c1cc(C)cc(C)c1)C2", "measureName": "TGI", "result": "> 100 µM"}
{"compound": "C/C(=N\\Nc1nc2ccccc2s1)c1cc2ccccc2cn1", "measureName": "TGI", "result": "62.2 µM"}
{"compound": "CC([O-])=C1C(=O)c2ccccc2C1=O.CC([O-])=C1C(=O)c2ccccc2C1=O.CC[O-].CC[O-].[Ti+4]", "measureName": "TGI", "result": "> 100 µM"}
{"compound": "O=c1[nH]cnc2c(COCCO)c[nH]c12", "measureName": "TGI", "result": "> 100 µM"}
{"compound": "CC(C)(C)N/N=C(\\C(=O)NC1=C(Cl)C(=O)c2ccccc2C1=O)C1C=CCS1(=O)=O (centres undefined)", "measureName": "TGI", "result": "30.7 µM"}
{"compound": "C/C(=C/CC[C@]1(CO)CC[C@]2(C)[C@H](CC[C@@H]3[C@@]4(C)CC[C@H](OC5OC(CO)C(O)C(O)C5OC5OC(CO)C(O)C(O)C5O)C(C)(C)[C@@H]4CC[C@]32C)[C@H]1O)CO (some centres undefined)", "measureName": "TGI", "result": "> 100 µM"}
{"compound": "C[C@@H]1CC(=O)C[C@@H]2CC[C@H]3[C@@H]4CC[C@H](OC(=O)c5cccc6cc7ccccc7nc56)[C@H]4CC[C@@H]3[C@H]21", "measureName": "TGI", "result": "30.9 µM"}
{"compound": "O=Cc1ccc(-c2ccc(-c3nc4ccccc4s3)cc2)s1", "measureName": "TGI", "result": "> 100 µM"}
{"compound": "O=C1/C(=C/c2ccc(O)cc2)COc2ccc(O)c(O)c21", "measureName": "TGI", "result": "65.9 µM"}
{"compound": "COc1cc2c(/C=C3/C(=O)Nc4ccc(Cl)cc43)c(Cl)[nH]c2cc1C", "measureName": "TGI", "result": "11.4 µM"}
{"compound": "Brc1cccc(C2ON=C(c3ccccc3)N2C23CC4CC(CC(C4)C2)C3)c1 (centres undefined)", "measureName": "TGI", "result": "> 10 µM"}
{"compound": "CCCCNc1ccc(Nc2ccccc2)cc1", "measureName": "TGI", "result": "> 100 µM"}
{"compound": "COc1cc2oc3c(c(=O)c2c(O)c1/C=C/C(C)C)C(C=C(C)C)Oc1cc(O)ccc1-3 (centres undefined)", "measureName": "TGI", "result": "31.5 µM"}
{"compound": "O=C1N(Cc2ccccc2Cl)c2ccccc2C12NN=C(c1cccc(Cl)c1)S2 (centres undefined)", "measureName": "TGI", "result": "4.05 µM"}
{"compound": "CC(C)=CC(=O)c1[nH]c2ccccc2c1CC(=O)NCCc1cncn1C", "measureName": "TGI", "result": "> 100 µM"}
{"compound": "COc1cc(C(C)O)c[n+](CCC2CNc3ccccc32)c1 (centres undefined)", "measureName": "TGI", "result": "> 100 µM"}
{"compound": "CCOC(=O)c1c(SC(=O)c2ccc(OC)cc2)n(-c2ccccc2)c(=S)n(-c2ccccc2)c1=O", "measureName": "TGI", "result": "> 100 µM"}
{"compound": "COc1cnc2c(c1)C(=O)c1c-2n(CCCN2CCC(O)CC2)c(=O)c2cc(Cl)ccc12", "measureName": "TGI", "result": "3.08 µM"}
{"compound": "Cn1cc(C(=O)c2ccccc2)cc(C(=O)c2ccccc2)c1=O", "measureName": "TGI", "result": "> 100 µM"}
